Below, each entry is listed with its recorded IC50.
- Target or test system: Recombinant (1-346) HPK1 (h) (Homo sapiens, UniProt Q92918)
- Construct: Recombinant (1-346) HPK1 (h) is incubated with 8 mM MOPS pH 7.0
- Experimental details: HPK1 Human STE Kinase Enzymatic Radiometric Assay
- Assay type: biochemical
- Study conditions: read-out: HPK1 IC50 nM Range*
- Method: A stock solution of 10 mM of test compound is prepared in DMSO. The compound plate was prepared by 3-fold and 9-point serial dilutions. […] The reaction is initiated by The addition of the Mg/ATP mix. After incubation for 40 minutes at RT, the reaction is stopped by the addition of phosphoric acid to a concentration of 0.5%.

INSERT INTO results (compound, measure, observed_measurement) VALUES
  ('COC1CN(Cc2cc(-c3cc(-c4cc5c(cc4F)C(=O)NCC5)c(N)nc3F)ccc2N2CCOCC2)C1', 'IC50', '11 to 100 nM'),
  ('Cc1nc2cc(-c3cc(-c4ccc(N5CCN(C(C)C)CC5)cc4)c(F)nc3N)ccc2c(=O)n1N', 'IC50', '101 to 1000 nM'),
  ('C[C@@H]1C[C@@H](Oc2ccc(-c3cc(-c4ccc5c(c4)CCNC5=O)c(N)nc3F)cc2)C[C@H](C)N1', 'IC50', '0.1 to 10 nM'),
  ('Nc1nc(F)c(-c2ccc(N3CCN(CCCC(F)F)CC3)cc2)cc1-c1cc(F)c2c(c1)CCNC2=O', 'IC50', '0.1 to 10 nM'),
  ('Cc1c[nH]c(=O)c2ccc(-c3cc(-c4cccc(CN(C)C)c4)c(F)nc3N)cc12', 'IC50', '101 to 1000 nM'),
  ('Cc1nc2cc(-c3cc(-c4ccc(C5CCOCC5)c(CN(C)C)c4)c(F)nc3N)cc(F)c2c(=O)[nH]1', 'IC50', '11 to 100 nM'),
  ('CC(C)N1CCN(c2ccc(-c3cc(-c4cc(N)c5c(c4)CCNC5=O)c(N)nc3F)cc2)CC1', 'IC50', '101 to 1000 nM'),
  ('COCCN1CCC2(CCc3cc(-c4cc(-c5ccc6c(c5)CCNC6=O)c(N)nc4F)ccc3O2)CC1', 'IC50', '0.1 to 10 nM'),
  ('Nc1nc(F)c(-c2ccc3c(c2)CCNC3=O)cc1-c1ccc2c(c1)CCNC2=O', 'IC50', '0.1 to 10 nM'),
  ('COC1CCN(Cc2cc(-c3cc(-c4cc5c(cc4F)C(=O)NCC5)c(N)nc3F)ccc2OCC2CC2)CC1', 'IC50', '11 to 100 nM');

Report IC50 for `CC(C)[C@@H]1CN(c2ccc(-c3cc(-c4ccc5c(c4)CCNC5=O)c(N)nc3F)c(F)c2)CCO1` tested on Recombinant (1-346) HPK1 (h) (Homo sapiens, UniProt Q92918).
0.1 to 10 nM

Report IC50 for `CN(C)Cc1cccc(-c2cc(-c3ccc4c(c3)CCNC4=O)c(N)nc2F)c1` tested on Recombinant (1-346) HPK1 (h) (Homo sapiens, UniProt Q92918).
11 to 100 nM

Report IC50 for `COc1ccc(-c2cc(-c3cc4c(cc3F)C(=O)NCC4)c(N)nc2F)cc1CN1CC(OC)C1` tested on Recombinant (1-346) HPK1 (h) (Homo sapiens, UniProt Q92918).
11 to 100 nM

Report IC50 for `Nc1nc(F)c(-c2ccc(C3CCOCC3)c(CN3CCCC3)c2)cc1-c1cc2c(cc1F)C(=O)NCC2` tested on Recombinant (1-346) HPK1 (h) (Homo sapiens, UniProt Q92918).
11 to 100 nM

Report IC50 for `Nc1nc(F)c(-c2ccc(OC3CCN(CCCC(F)(F)F)CC3)cc2)cc1-c1ccc2c(c1)CCNC2=O` tested on Recombinant (1-346) HPK1 (h) (Homo sapiens, UniProt Q92918).
0.1 to 10 nM

* * *

Below, each entry is listed with its recorded IC50.
- Target or test system: Recombinant (1-346) HPK1 (h) (Homo sapiens)
- Construct: Recombinant (1-346) HPK1 (h) is incubated with 8 mM MOPS pH 7.0
- Sequence (Q92918 1-346): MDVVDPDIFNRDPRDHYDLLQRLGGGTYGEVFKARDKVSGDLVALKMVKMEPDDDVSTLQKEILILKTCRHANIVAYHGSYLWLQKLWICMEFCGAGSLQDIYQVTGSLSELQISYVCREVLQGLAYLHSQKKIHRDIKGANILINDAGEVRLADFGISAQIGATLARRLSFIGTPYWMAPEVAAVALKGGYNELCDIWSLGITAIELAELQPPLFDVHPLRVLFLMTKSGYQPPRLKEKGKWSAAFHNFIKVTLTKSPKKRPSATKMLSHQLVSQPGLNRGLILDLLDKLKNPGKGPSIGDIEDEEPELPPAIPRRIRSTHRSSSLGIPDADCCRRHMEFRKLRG
- Experimental details: HPK1 Human STE Kinase Enzymatic Radiometric Assay
- Format: biochemical
- Study conditions: read-out: HPK1 IC50 nM Range*

Previously resolved entries follow.
INSERT INTO results (compound, observed_measurement) VALUES
  ('COCCN1CCC(c2ccc(-c3cc(-c4cc(F)c5c(c4)CCNC5=O)c(N)nc3F)cc2)CC1 [I-350]', '0.1 to 10 nM'),
  ('CC(C)N1CCN(c2ccc(-c3cc(-c4cc5c(cc4F)C(=O)NCC5)c(N)nc3F)nc2)CC1 [I-170]', '0.1 to 10 nM'),
  ('Cc1cc2cc(-c3cc(-c4ccc(N5CCN(C(C)C)CC5)cc4)c(F)nc3N)c(F)cc2c(=O)[nH]1 [I-587]', '11 to 100 nM');

Report IC50 for CN(C)S(=O)(=O)c1ccc(-c2cc(-c3ccc4c(c3)CCNC4=O)c(N)nc2F)cc1 [I-64] tested on Recombinant (1-346) HPK1 (h) (Homo sapiens).
0.1 to 10 nM

Report IC50 for Nc1nc(F)c(-c2ccc(C3CCOCC3)cc2C2CNC(=O)C2)cc1-c1cc2c(cc1F)C(=O)NCC2 (centres unmarked) [I-479] tested on Recombinant (1-346) HPK1 (h) (Homo sapiens).
> 1000 nM

Report IC50 for C[C@H](C1CC1)N1CCN(c2ccc(-c3cc(-c4cc(F)c5c(c4)CCNC5=O)c(N)nc3F)cc2)CC1 [I-390] tested on Recombinant (1-346) HPK1 (h) (Homo sapiens).
0.1 to 10 nM

Report IC50 for COC1(c2ccc(-c3cc(-c4ccc5c(c4)CCNC5=O)c(N)nc3F)cc2)CCN(C(C)C)CC1 [I-294] tested on Recombinant (1-346) HPK1 (h) (Homo sapiens).
0.1 to 10 nM

Report IC50 for CC(C)(C)OC(=O)N1CCC2(CCc3cc(-c4cc(-c5ccc6c(c5)CCNC6=O)c(N)nc4F)ccc3O2)CC1 [I-175] tested on Recombinant (1-346) HPK1 (h) (Homo sapiens).
101 to 1000 nM

* * *

- Target or test system: Lck (h) (Homo sapiens, UniProt P06239)
- Sequence (P06239 whole entry): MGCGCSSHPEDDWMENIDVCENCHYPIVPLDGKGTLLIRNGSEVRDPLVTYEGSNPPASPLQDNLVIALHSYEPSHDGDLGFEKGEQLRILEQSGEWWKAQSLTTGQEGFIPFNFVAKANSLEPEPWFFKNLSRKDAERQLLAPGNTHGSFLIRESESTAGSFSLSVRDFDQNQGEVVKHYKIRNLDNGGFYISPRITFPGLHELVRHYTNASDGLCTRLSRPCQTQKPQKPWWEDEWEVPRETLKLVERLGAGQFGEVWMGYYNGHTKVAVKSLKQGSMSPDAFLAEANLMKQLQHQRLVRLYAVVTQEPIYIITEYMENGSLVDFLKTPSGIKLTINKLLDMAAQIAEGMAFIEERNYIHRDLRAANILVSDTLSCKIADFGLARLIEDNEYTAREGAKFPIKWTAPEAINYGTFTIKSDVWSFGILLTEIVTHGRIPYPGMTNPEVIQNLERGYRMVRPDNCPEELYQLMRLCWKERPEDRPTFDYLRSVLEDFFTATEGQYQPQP
- Experimental details: Lck Human  Kinase Enzymatic Radiometric Assay
- Format: biochemical
- Method: Lck (h) is incubated with 50 mM Tris pH 7.5, 0.1 mM EGTA, 0.1 mM Na3VO4, 250 uM KVEKIGEGTYGVVYK (Cdc2 peptide), 10 mM MgAcetate and [gamma-33P]-ATP (specific activity and concentration as required). The reaction is initiated by the addition of the Mg/ATP mix. After incubation for 40 minutes at RT, the reaction is stopped by the addition of phosphoric acid to a concentration of 0.5%. […]
Measure: IC50

Previously resolved entries follow.
INSERT INTO assay_data (compound, observed_measurement) VALUES
  ('CC(C)(C)OC(=O)N1CCC2(CC1)OCc1cc(-c3cc(-c4ccc5c(c4)CCNC5=O)c(N)nc3F)ccc1O2 [I-173]', '> 1000 nM'),
  ('Nc1nc(F)c(-c2ccc3c(c2)COC2(CCNCC2)O3)cc1-c1ccc2c(c1)CCNC2=O [I-181]', '> 1000 nM');

Reported IC50, compound CC(=O)N1CCC2(CC1)OCc1cc(-c3cc(-c4ccc5c(c4)CCNC5=O)c(N)nc3F)ccc1O2 [I-191] : ____
> 1000 nM

* * *

Below, each entry is listed with its recorded IC50.
- Target or test system: Recombinant (1-346) HPK1 (h) (Homo sapiens)
- Construct: Recombinant (1-346) HPK1 (h) is incubated with 8 mM MOPS pH 7.0
- Experimental details: HPK1 Human STE Kinase Enzymatic Radiometric Assay
- Type: biochemical
- Study conditions: read-out: HPK1 IC50 nM Range*

Previously resolved entries follow.
INSERT INTO measurements (compound, observed_measurement) VALUES
  ('CN1C[C@@H]2C[C@H]1CN2c1ccc(-c2cc(-c3ccc4c(c3)CCNC4=O)c(N)nc2F)cc1', '0.1 to 10 nM'),
  ('Nc1nc(F)c(-c2ccc(C3=CCNCC3)cc2)cc1-c1ccc2c(c1)CCNC2=O [I-57, 2,2,2-trifluoroacetate]', '0.1 to 10 nM'),
  ('CO[C@H]1CCN(Cc2cc(-c3cc(-c4cc5c(cc4F)C(=O)NCC5)c(N)nc3F)ccc2N2CCOCC2)C1', '0.1 to 10 nM'),
  ('Nc1nc(F)c(-c2ccc(C3CCNCC3)cc2)cc1-c1ccc2c(c1)CCNC2=O', '0.1 to 10 nM'),
  ('Nc1nc(F)c(-c2ccc3c(c2)COC2(CCN(CC(F)(F)F)CC2)O3)cc1-c1ccc2c(c1)CCNC2=O', '11 to 100 nM');

Reported IC50, compound `N#Cc1cc(-c2cc(-c3cc4c(cc3F)C(=O)NCC4)c(N)nc2F)ccc1OC1CCNCC1` : ____
11 to 100 nM

Reported IC50, compound CC(C)N1CC2C(F)(F)C2(c2ccc(-c3cc(-c4ccc5c(c4)CCNC5=O)c(N)nc3F)cc2)C1 (centres unmarked) : ____
0.1 to 10 nM

Reported IC50, compound `Nc1nc(F)c(-c2ccc(N3CCS(=O)(=O)CC3)cc2)cc1-c1cc2c(cc1F)C(=O)NCC2` : ____
0.1 to 10 nM
